Data origin: paper PMC4497601

parameter: Kd (µM)
Number only, in µM; omit the unit.

Nc1ncnc2c1ncn2[C@@H]1O[C@H](COP(=O)(O)OP(=O)(O)O)[C@@H](O)[C@H]1O [Ligand I, Adenosine diphosphate] tested on N-terminal ATPase domain of heat shock protein 90 (Hsp90) (Homo sapiens) gave Kd: 15

###

subject_of_test: Hsp90 ATP binding site (Homo sapiens, UniProt P07900)
protocol: LLS screening in competition mode
condition_summary: 500 μM spy ligand II, 2.5 μM Hsp90, 600 μM of each ligand, Δ=2.5 s
parameter: binding to Hsp90 in LLS competition screening of mixtures

{"columns": ["chemical_smiles", "result"],
 "data": [
  ["N[C@@H](Cc1ccc(O)cc1)C(=O)O", "nonbinding"],
  ["N=C(N)c1ccc(C(F)(F)F)cc1", "nonbinding"],
  ["NCc1ccc(F)c(F)c1", "nonbinding"]
]}
